Consider the following binders and their measured Kd readings.
Subject of test: T1, EsCas13d, nuclease-dead (Eubacterium siraeum, UniProt B0MS50, R295A;H300A;R849A;H854A)
T1 sequence: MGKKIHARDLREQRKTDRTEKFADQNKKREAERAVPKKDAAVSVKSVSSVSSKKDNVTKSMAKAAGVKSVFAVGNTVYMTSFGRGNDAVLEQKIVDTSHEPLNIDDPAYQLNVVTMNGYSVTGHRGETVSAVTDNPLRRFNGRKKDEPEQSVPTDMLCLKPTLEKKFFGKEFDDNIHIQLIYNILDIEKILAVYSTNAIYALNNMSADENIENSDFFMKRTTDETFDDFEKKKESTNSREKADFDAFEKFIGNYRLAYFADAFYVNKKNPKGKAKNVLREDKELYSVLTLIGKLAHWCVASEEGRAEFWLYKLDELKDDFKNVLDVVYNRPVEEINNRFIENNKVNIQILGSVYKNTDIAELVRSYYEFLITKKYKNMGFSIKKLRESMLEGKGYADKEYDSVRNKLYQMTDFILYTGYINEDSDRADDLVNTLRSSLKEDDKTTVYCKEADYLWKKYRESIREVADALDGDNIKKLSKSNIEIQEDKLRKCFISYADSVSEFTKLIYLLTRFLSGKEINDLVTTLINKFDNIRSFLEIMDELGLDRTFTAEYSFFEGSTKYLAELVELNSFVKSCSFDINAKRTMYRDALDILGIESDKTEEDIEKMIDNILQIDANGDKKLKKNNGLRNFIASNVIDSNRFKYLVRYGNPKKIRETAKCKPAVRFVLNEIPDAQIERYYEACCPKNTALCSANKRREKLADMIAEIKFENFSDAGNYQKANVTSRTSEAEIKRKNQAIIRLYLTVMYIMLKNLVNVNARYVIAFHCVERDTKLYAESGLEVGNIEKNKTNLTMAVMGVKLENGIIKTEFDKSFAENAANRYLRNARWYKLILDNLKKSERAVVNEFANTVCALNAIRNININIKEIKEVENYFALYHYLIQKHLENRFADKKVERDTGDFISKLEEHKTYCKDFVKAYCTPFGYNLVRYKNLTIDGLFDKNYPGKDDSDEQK
Assay name: crRNA (strand 1, pre-loaded); Mg2+; 40 mM Tris-HCl pH 7.5, 150 mM NaCl, 6 mM MgCl2, 1 mM DTT, 0.1% Tween-20, 0.2 mg/ml BSA; 25 C; 10 min per concentration, then washed
Condition: tags: His6-TwinStrep-SUMO cleaved; N-terminal SNAP kept (SNAP-Surface 488); label: 3' end held by stalled T7 RNA polymerase
Report only the number, with the unit nM understood.

Some entries whose results are on file:
INSERT INTO measurements (binder, observed_property, recorded_measurement) VALUES
  ('target 2 MT 5''PFS AAC 3''PFS CGC (mixed) RNA 1: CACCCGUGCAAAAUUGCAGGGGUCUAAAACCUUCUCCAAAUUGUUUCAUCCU RNA 2: GGGAAUGGAUCCACAUCUACGAAUUCAACAGGAUGAAACAAUUUGGAGAAGCGCAGAUCGGAAGAGCACACGU', 'Kd', 4.7),
  ('target 1 insA 3'' of 17,insC 3'' of 13 (mixed) RNA 1: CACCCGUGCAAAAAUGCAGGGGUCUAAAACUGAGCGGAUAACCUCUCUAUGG RNA 2: GGGAAUGGAUCCACAUCUACGAAUUCGUACCAUAGAAGAGCGUUAUCCGCUCACCGAGAUCGGAAGAGCACACGU', 'Kd', 35),
  ('target 1 G5C (mixed) RNA 1: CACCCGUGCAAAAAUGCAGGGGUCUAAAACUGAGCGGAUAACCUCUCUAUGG RNA 2: GGGAAUGGAUCCACAUCUACGAAUUCGUACCAUAGAGAGGUUAUCCCCUCACCGAGAUCGGAAGAGCACACGU', 'Kd', 9.6),
  ('target 1 MT 5''PFS CAA 3''PFS UUA (mixed) RNA 1: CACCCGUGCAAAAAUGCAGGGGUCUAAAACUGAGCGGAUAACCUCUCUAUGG RNA 2: GGGAAUGGAUCCACAUCUACGAAUUCCAACCAUAGAGAGGUUAUCCGCUCAUUAAGAUCGGAAGAGCACACGU', 'Kd', 7.25),
  ('target 1 MT 5''PFS GUG 3''PFS GGU (mixed) RNA 1: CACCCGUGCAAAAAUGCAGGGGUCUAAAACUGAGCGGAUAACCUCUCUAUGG RNA 2: GGGAAUGGAUCCACAUCUACGAAUUCGUGCCAUAGAGAGGUUAUCCGCUCAGGUAGAUCGGAAGAGCACACGU', 'Kd', 25.6);

Reported Kd of target 1 insA 3' of 13,insC 3' of 11 (mixed) RNA 1: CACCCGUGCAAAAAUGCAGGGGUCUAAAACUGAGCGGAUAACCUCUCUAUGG RNA 2: GGGAAUGGAUCCACAUCUACGAAUUCGUACCAUAGAGAGAGUCUAUCCGCUCACCGAGAUCGGAAGAGCACACGU : 7.8

Reported Kd of target 1 A16G,C21U (mixed) RNA 1: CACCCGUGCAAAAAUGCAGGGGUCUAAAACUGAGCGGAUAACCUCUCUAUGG RNA 2: GGGAAUGGAUCCACAUCUACGAAUUCGUACUAUAGGGAGGUUAUCCGCUCACCGAGAUCGGAAGAGCACACGU : 7.65

Reported Kd of target 3 insA 3' of 6,insU 3' of 6 (mixed) RNA 1: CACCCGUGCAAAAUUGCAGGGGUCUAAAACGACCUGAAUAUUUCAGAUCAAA RNA 2: GGGAAUGGAUCCACAUCUACGAAUUCGUUUUUGAUCUGAAAUAUUCAUAGGUCUGCAGAUCGGAAGAGCACACGU : 5.3
